B1: TPR 5TU (parent)
chain: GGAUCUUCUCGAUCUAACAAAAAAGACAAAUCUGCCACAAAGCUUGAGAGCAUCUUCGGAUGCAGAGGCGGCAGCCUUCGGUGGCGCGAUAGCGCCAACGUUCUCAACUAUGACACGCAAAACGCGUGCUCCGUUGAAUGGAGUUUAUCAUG

# Variants of: B1
# procedure-summary: polymerase ribozyme fitness, log enrichment relative to wild type (log ratio); higher = more active; in vitro selection for triplet polymerase activity
Variants at the floor of the assay were thinned out.
property-name: polymerase ribozyme fitness (log ratio)

Reference set (2 entries):
1. G50A G136U U144G U146C : -2.38
2. C103A A107U U134A : ≤ -4.2

query: Output polymerase ribozyme fitness (log ratio) of A40G U56A G67A G83A
result: ≤ -4.2

query: Output polymerase ribozyme fitness (log ratio) of A23U C38U C114U G126A
result: ≤ -4.2
